Experiment: Terminal half-life of mavorixafor
Details: in vivo
Measured quantity: half-life

                                   compound    measured
0  NCCCCN(Cc1nc2ccccc2[nH]1)[C@H]1CCCc2cccnc21 [Mavorixafor]  12 to 24 h
